Let's look at some sequences and their measured collision cross section.
- experimental.details: collision cross section of modified peptide (TIMS, N2, iRT-aligned); higher = larger / more extended gas-phase ion
- condition.summary: charge state: 3; modification: GlyGly (K)

seq.text: DTPTSAGPNSFNKGK [_DTPTSAGPNSFNK(GlyGly (K))GK_]
collision cross section (Å²): 464.37

seq.text: LQEKVESAQSEQK [_LQEK(GlyGly (K))VESAQSEQK_]
collision cross section (Å²): 508.34

seq.text: IPQEKCILQTDVK [_IPQEK(GlyGly (K))CILQTDVK_]
collision cross section (Å²): 482.94

seq.text: VLTANSNPSSPSAAKR [_VLTANSNPSSPSAAK(GlyGly (K))R_]
collision cross section (Å²): 511.93

seq.text: DYSAPVNFISAGLKK [_DYSAPVNFISAGLK(GlyGly (K))K_]
collision cross section (Å²): 532.12

seq.text: SLKLNTAEDAK [_SLK(GlyGly (K))LNTAEDAK_]
collision cross section (Å²): 458.17

seq.text: VFIGNLNTLVVKK [_VFIGNLNTLVVK(GlyGly (K))K_]
collision cross section (Å²): 487.11

seq.text: DHLSDKESK [_DHLSDK(GlyGly (K))ESK_]
collision cross section (Å²): 411.26

seq.text: AAQASDLEKIHLDEK [_AAQASDLEK(GlyGly (K))IHLDEK_]
collision cross section (Å²): 508.49

seq.text: DLSTVEALQNLKNLK [_DLSTVEALQNLK(GlyGly (K))NLK_]
collision cross section (Å²): 514.39

seq.text: IISSIEQKEENK [_IISSIEQK(GlyGly (K))EENK_]
collision cross section (Å²): 482.93

From: the supplement of paper PMC10598134
